The origin of these recorded values is BigSolDB 2.1.

- details: in 1,2-dichloroethane, 298.15 K
readout-label: solubility (mole fraction)

1. O=[N+]([O-])N(CCO)CCO.O=[N+]([O-])O.O=[N+]([O-])O
0.587

====

- details: in acetonitrile, 313.15 K
readout-label: solubility (mole fraction)

1) O=[N+]([O-])N(CCO)CCO.O=[N+]([O-])O.O=[N+]([O-])O
0.558

====

- details: in 1,2-dichloroethane, 313.15 K
readout-label: solubility (mole fraction)

1. O=[N+]([O-])N(CCO)CCO.O=[N+]([O-])O.O=[N+]([O-])O
0.787

====

- details: in 1,4-dioxane, 303.15 K
readout-label: solubility (mole fraction)

1. O=[N+]([O-])N(CCO)CCO.O=[N+]([O-])O.O=[N+]([O-])O
0.425
